target: canine CD3 on canine T cells (canine PBMC) (canine, UniProt P27597 22-202); assay: cell-based or functional assay
Sequence (P27597 22-202 limits assumed, chain 1 of 3): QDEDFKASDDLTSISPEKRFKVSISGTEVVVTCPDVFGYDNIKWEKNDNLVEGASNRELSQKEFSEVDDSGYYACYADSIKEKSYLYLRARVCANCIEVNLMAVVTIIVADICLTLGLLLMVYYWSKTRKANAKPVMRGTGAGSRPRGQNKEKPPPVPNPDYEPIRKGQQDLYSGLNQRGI
Sequence (chain, as listed by the source limits assumed, chain 2 of 3): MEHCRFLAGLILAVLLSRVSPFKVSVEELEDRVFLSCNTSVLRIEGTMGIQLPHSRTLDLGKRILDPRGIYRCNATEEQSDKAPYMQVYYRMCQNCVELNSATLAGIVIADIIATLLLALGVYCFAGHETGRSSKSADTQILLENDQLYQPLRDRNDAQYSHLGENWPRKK
Sequence (chain, as listed by the source limits assumed, chain 3 of 3): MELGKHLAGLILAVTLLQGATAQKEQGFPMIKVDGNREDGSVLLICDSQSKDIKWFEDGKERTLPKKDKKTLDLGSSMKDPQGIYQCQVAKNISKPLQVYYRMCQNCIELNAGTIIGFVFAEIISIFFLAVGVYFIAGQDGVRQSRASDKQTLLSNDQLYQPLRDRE
REPORTED PROPERTY: Ki67 Proliferation, Day 6, IS
Numbers only.

{"columns": ["BINDER", "Ki67 Proliferation, Day 6, IS"],
 "data": [
  ["PMX167 (monospecific anti-canine CD3, canine IgG-B effector function deficient Fc) (antibody, V domains shown) VH: EVKLVESGGDLVKPGGSLRLSCMASGFTLNNYYMSWVRQAPGKGLQWVAYIKSGGSDTSYVDAVKGRFTISRDNAKNTLHLQMNSLRVEDTAVYYCATDGYIWAWGQGTLVTVSS VL: SYVLTQLPSKNVTLKQPAHITCGGDNIGSKSVHWYQQKLGQAPVLIIYYDNSRPTGIPERFSGAKSGNTATLTISGALAEDEADYYCQVWDSSSKAYVFGSGTQLTVL", 1.55]
]}

Request: Quick check: Ki67 Proliferation, Day 6, IS of PMX200 (monospecific anti-canine CD3, canine IgG-B effector function deficient Fc) (antibody, V domains shown) VH: ELTLQESGPGLVKPSQTLSLTCIVSGGSVTSSYYWNWIRQSPGRGLEWMGYWTGNTNYNPALQGRIFITADTAKNQFSLQLRSMTTEDTAVYYCARGGYGYHYGMDYWGHGTSVFVSS VL: SYVLTQLPSKSVALKQPAHITCGGDNIGSKRVHWYQQKLGQAPALIISFDNSRPTGIPERFSGANSGNTATLTISGALAEDEADYYCQVWDSTAKASIFGGGTHLTVL ?
Response: 0.76
